In this section, each of the binders is paired with its reported IC50.
target: HLA-DP molecule DPB1*1401 (human); assay: inhibition of radiolabeled peptide binding to purified HLA-DP
Record the value in µM, omitting the unit from your answer.

Some binders with known IC50 results, for comparison:
{"binder": "LWEVKSAKPLTGPMN [Lol p 3 peptide, position 51, LWEVKSAKPLTGPMN (Peptide ID 3337.0031)]", "IC50 (µM)": 18.6}
{"binder": "MRNVFDDVVPADFKV [Lol p 2 peptide, position 76, MRNVFDDVVPADFKV (Peptide ID 3337.0030)]", "IC50 (µM)": 24.2}
{"binder": "PAAAYATATPAAATA [Lol p 5 1 peptide, position 306, PAAAYATATPAAATA (Peptide ID 3324.1184)]", "IC50 (µM)": 0.299}

The record that follows has no IC50 shown yet.
Name the recorded IC50 for DAYVATLTEALRVIA [Lol p 5 1 peptide, position 151, DAYVATLTEALRVIA (Peptide ID 3324.1167)] .
4.4

The measured values listed here are drawn from patent US20150004189A1.
